These entries and their values trace back to paper PMC4072508.

- ASSAYED SYSTEM: T1, Bfl-1, Q16548
- T1 chain: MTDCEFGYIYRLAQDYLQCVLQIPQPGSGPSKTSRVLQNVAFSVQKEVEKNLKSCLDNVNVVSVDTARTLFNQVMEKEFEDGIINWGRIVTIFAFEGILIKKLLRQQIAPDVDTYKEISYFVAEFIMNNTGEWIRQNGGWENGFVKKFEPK
- PROTOCOL DETAILS: fluorescence polarisation, direct titration of receptor into 10 nM labelled peptide
Please provide measured Kd for the entries that follow.
Your answer is read as nM, so omit the unit and give the number.

Consider the binder LRGSGAWGLLLRRVGDDVLVHLLARC [TERT] and give its recorded Kd.
99

Consider the binder ACGDSVLARMLRELGDSLRRPQLRLW [SLC19A1] and give its recorded Kd.
182
